System: Candida albicans
Assay: In vitro minimum inhibitory concentration (MIC) against Candida albicans.
Type: functional
Positions of bridges follow the written chain, without caps; N, C: chain ends. Non-standard residues stand in square brackets, D forms with d. Residues, ends and D or L forms follow the SMILES beside them. *: point of attachment. Tetradecanoyl(3R-OH) = CCCCCCCCCCC[C@@H](O)CC(=O)*; Asp(3S-OH) = N[C@H](C(=O)O)[C@H](O)C(=O)O; Thr(4-Cl) = N[C@H](C(=O)O)[C@H](O)CCl; aThr = C[C@H](O)[C@H](N)C(=O)O; dDab = NCC[C@@H](N)C(=O)O; Dab = NCC[C@H](N)C(=O)O; Dhb = C/C=C(\N)C(=O)O; X1 = CCN(CC)CCN*; NHcPr = C1CC1N*
Lab note: cut-off is 1 µg/mL. Strictly less in MIC is rule met. Exactly 1 µg/mL or more is rule not met.

Query :: # TODO verify MIC < 1 µg/mL strictly for this molecule: C/C=C1\NC(=O)[C@H]([C@H](C)O)NC(=O)[C@H](CCN)NC(=O)[C@H](CCCCN)NC(=O)[C@H](CC(=O)NCCN(CC)CC)NC(=O)[C@@H](CCN)NC(=O)[C@@H](NC(=O)C[C@H](O)CCCCCCCCCCC)COC(=O)[C@H]([C@H](O)CCl)NC(=O)[C@H]([C@H](O)C(=O)O)NC1=O ({Tetradecanoyl(3R-OH)}-S[dDab]D(X1)K[Dab][aThr][Dhb][Asp(3S-OH)][Thr(4-Cl)]; ester 1-C)
Result :: rule not met

Query :: # TODO verify MIC < 1 µg/mL strictly for this molecule: C/C=C1\NC(=O)[C@H]([C@H](C)O)NC(=O)[C@H](CCN)NC(=O)[C@H](CCCCN)NC(=O)[C@H](CC(=O)NCCC)NC(=O)[C@@H](CCN)NC(=O)[C@@H](NC(=O)C[C@H](O)CCCCCCCCCCC)COC(=O)[C@H]([C@H](O)CCl)NC(=O)[C@H]([C@H](O)C(=O)O)NC1=O
Result :: rule not met

Query :: # TODO verify MIC < 1 µg/mL strictly for this molecule: C/C=C1\NC(=O)[C@H]([C@H](C)O)NC(=O)[C@H](CCN)NC(=O)[C@H](CCCCN)NC(=O)[C@H](CC(=O)NCC)NC(=O)[C@@H](CCN)NC(=O)[C@@H](NC(=O)C[C@H](O)CCCCCCCCCCC)COC(=O)[C@H]([C@H](O)CCl)NC(=O)[C@H]([C@H](O)C(=O)O)NC1=O
Result :: rule met

Query :: # TODO verify MIC < 1 µg/mL strictly for this molecule: C/C=C1\NC(=O)[C@H]([C@@H](C)O)NC(=O)[C@H](CCN)NC(=O)[C@H](CCCCN)NC(=O)[C@H](CC(=O)N[C@@H](CCCN=C(N)N)C(=O)OC)NC(=O)[C@@H](CCN)NC(=O)[C@@H](NC(=O)C[C@H](O)CCCCCCCCCCC)COC(=O)[C@H]([C@H](O)CCl)NC(=O)[C@H]([C@H](O)C(=O)O)NC1=O
Result :: rule not met

Query :: # TODO verify MIC < 1 µg/mL strictly for this molecule: C/C=C1\NC(=O)[C@H]([C@H](C)O)NC(=O)[C@H](CCN)NC(=O)[C@H](CCCCN)NC(=O)[C@H](CC(=O)NC2CC2)NC(=O)[C@@H](CCN)NC(=O)[C@@H](NC(=O)C[C@H](O)CCCCCCCCCCC)COC(=O)[C@H]([C@H](O)CCl)NC(=O)[C@H]([C@H](O)C(=O)O)NC1=O ({Tetradecanoyl(3R-OH)}-S[dDab]D(NHcPr)K[Dab][aThr][Dhb][Asp(3S-OH)][Thr(4-Cl)]; ester 1-C)
Result :: rule met

Query :: # TODO verify MIC < 1 µg/mL strictly for this molecule: C/C=C1\NC(=O)[C@H]([C@H](C)O)NC(=O)[C@H](CCN)NC(=O)[C@H](CCCCN)NC(=O)[C@H](CC(=O)NCCCCN(C)C)NC(=O)[C@@H](CCN)NC(=O)[C@@H](NC(=O)C[C@H](O)CCCCCCCCCCC)COC(=O)[C@H]([C@H](O)CCl)NC(=O)[C@H]([C@H](O)C(=O)O)NC1=O
Result :: rule not met
